B1: Hairpin Ribozyme (parent)
chain: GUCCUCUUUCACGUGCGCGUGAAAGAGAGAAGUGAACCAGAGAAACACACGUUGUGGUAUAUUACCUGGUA

Variants of: B1
testProtocol: self-cleavage, relative activity (ratio to wild type); higher = more cleavage; co-transcriptional
reportedEndpoint: self-cleavage
Give the figure by itself; no unit, no explanation.

* GUCCUCUUUCACGUGCGCGUGAAAGAGAGAAGUGAACCAGACAAACUCACGUUGUGGUAUAUUACCUGGUA [G42C A47U] | 0.147
* GUCCUCUUUCACGUGCGCGUGAAAGAAAGAAGUGAACCAGAGAAACACACGUUGUGGUAUAUUACCUGGCA [G27A U70C] | 0.391
* GUCCUCUUUCACGUGCGCGUGAAAGAGAGAAGUGAACCAGAGAAACGCACGUUGUGGUAUAUUACCUGUUA [A47G G69U] | 0.118

Query (variant): GUCCUCUUUCACGUGCGCGCAAAAGAGAGAAGUGAACCAGAGAAACACACGUUGUGGUAUAUUACCUGGUA [U20C G21A] ; field requested: self-cleavage 0.686

Consider the variant shown here: GUCCUCUUUCACGUGCGCGUGAAACAGAGAAGUGAACCAGAGAAACACACGUUGUGGUAUAUUACCUGGUC [G25C A71C] What is its recorded self-cleavage? 1.02

I am curious: what self-cleavage value has been reported for GUCCUCUUUCACGUGCGCGUGAAAGAGAGAAGUCAACCAGAGAAACACACGUUGUGGGAUAUUACCUGGUA [G34C U58G] ? 1.09
